test: Pharmacokinetic evaluation in mouse (oral); type: in vivo; conditions: male; BALB/c mouse, oral 0.8 mg/kg, plasma

{"compound": "C[S+]([O-])c1ccc(-c2nc(-c3ccncc3)c(-c3ccc(F)cc3)[nH]2)cc1 (stereo not drawn) [Comparative Compound 5]", "unitString": "ng/mL", "Cmax": 11.4}
{"compound": "COc1c(CO)cc(C(C)(C)C)cc1NC(=O)NC1Cc2ccccc2C1 [Comparative Compound 2]", "unitString": "ng/mL", "Cmax": 79.7}
{"compound": "COc1c(NC(=O)N[C@@H]2Cc3ccccc3[C@@H]2O)cc(C(C)(C)C)cc1[C@@H](O)C(F)(F)F [Compound 46b]", "unitString": "ng/mL", "Cmax": 561}

----------
assay: Metabolic stability in human CYP (human liver microsomes); format: in vitro ADME; conditions: human liver microsomes 0.5 mg/mL, NADPH, 37° C., comparative control compounds 5 μM

{"compound": "COc1c(NC(=O)N[C@@H]2Cc3ccccc3[C@@H]2O)cc(C(C)(C)C)cc1C(C)(C)C#N [Comparative Compound 3, reference compound]", "microsomal CLint at 5 μM [µL/min/mg]": 450}

----------
experiment: Metabolic stability in human CYP (human liver microsomes); format: in vitro ADME; details: human liver microsomes 0.5 mg/mL, NADPH, 37° C., compound 2 μM

{"compound": "COc1c(NC(=O)N[C@@H]2Cc3ccccc3[C@@H]2O)cc(C(C)(C)C)cc1[C@@H](O)C(F)(F)F [Compound 46b]", "microsomal CLint at 2 μM (µL/min/mg)": 94}

----------
assay: Pharmacokinetic evaluation in mouse (oral); type: in vivo; details: male; BALB/c mouse, oral 0.8 mg/kg, plasma

{"compound": "COc1c(CO)cc(C(C)(C)C)cc1NC(=O)NC1Cc2ccccc2C1 [Comparative Compound 2]", "unitString": "µg·h/mL", "AUC(0-inf)": 0.116}
{"compound": "C[S+]([O-])c1ccc(-c2nc(-c3ccncc3)c(-c3ccc(F)cc3)[nH]2)cc1 (stereo not drawn) [Comparative Compound 5]", "unitString": "µg·h/mL", "AUC(0-inf)": 0.0598}
{"compound": "COc1c(NC(=O)N[C@@H]2Cc3ccccc3[C@@H]2O)cc(C(C)(C)C)cc1[C@@H](O)C(F)(F)F [Compound 46b]", "unitString": "µg·h/mL", "AUC(0-inf)": 0.588}

----------
human p38 MAPK α (Homo sapiens (Human), UniProt Q16539): reported IC50 for various molecules.
Sequence (Q16539 whole entry): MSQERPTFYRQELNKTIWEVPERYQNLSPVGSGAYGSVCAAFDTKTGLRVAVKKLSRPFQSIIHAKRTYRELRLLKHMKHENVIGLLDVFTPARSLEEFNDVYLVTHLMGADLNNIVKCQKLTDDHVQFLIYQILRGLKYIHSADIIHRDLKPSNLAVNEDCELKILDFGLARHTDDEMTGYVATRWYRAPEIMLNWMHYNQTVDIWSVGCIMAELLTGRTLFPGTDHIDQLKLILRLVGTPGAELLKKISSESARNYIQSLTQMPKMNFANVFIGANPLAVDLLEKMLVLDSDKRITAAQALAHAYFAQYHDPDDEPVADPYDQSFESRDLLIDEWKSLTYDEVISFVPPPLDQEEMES

{"molecule": "COc1c(NC(=O)N[C@H]2Cc3c(F)cccc3[C@H]2O)cc(C(C)(C)C)cc1[C@@H](O)C(F)(F)F (single isomer, unassigned) [Compound 50b]", "unitString": "nM", "IC50": 35}
{"molecule": "COc1cccc2c1C[C@@H](NC(=O)Nc1cc(C(C)(C)C)cc([C@H](O)C(F)(F)F)c1OC)[C@H]2O (single isomer, unassigned) [Compound 52b]", "unitString": "nM", "IC50": 24}
{"molecule": "COc1c(NC(=O)N[C@@H]2Cc3ccccc3[C@@H]2O)cc(C(C)(C)C)cc1[C@@H](O)C(F)(F)F [Compound 46b]", "unitString": "nM", "IC50": 15}
{"molecule": "COc1c(NC(=O)N[C@@H]2Cc3c(F)cccc3[C@@H]2O)cc(N2CCOCC2)cc1[C@H](O)C(F)(F)F (single isomer, unassigned) [Compound 84b]", "unitString": "nM", "IC50": 16}
{"molecule": "COc1c(NC(=O)NC2Cc3ccccc3C2)cc(C(C)(C)C)cc1C(O)C(F)(F)F (stereo not shown) [Comparative Compound 1, reference compound]", "unitString": "nM", "IC50": 117}
{"molecule": "COc1c(NC(=O)N[C@@H]2Cc3ccccc3[C@@H]2O)cc(C(C)(C)C)cc1C(N)C(F)(F)F (stereo partly shown) [Compound 47b]", "unitString": "nM", "IC50": 18}
{"molecule": "CCC(C)(C)c1cc(NC(=O)N[C@@H]2Cc3ccccc3[C@@H]2O)c(OC)c([C@H](O)C(F)(F)F)c1 (single isomer, unassigned) [Compound 123b]", "unitString": "nM", "IC50": 29}
